Form field: Conversion Rate (one value per entry).
Tested on: Candida utilis ATCC 26387
Assay: Oxidation of sec-alcohols to ketones by cell suspensions of yeasts
Type: cell-based
Conditions: growth substrate Methylamine; sec-alcohol to methyl ketone

- COMPOUND: "CCCC(C)O (stereo not shown)"
  Conversion Rate: "1.2 μmoles/hr/mg of protein"
- COMPOUND: "CCCCC(C)O (stereo not shown)"
  Conversion Rate: "0.61 μmoles/hr/mg of protein"
- COMPOUND: "CCC(C)O (stereo not shown)"
  Conversion Rate: "5.0 μmoles/hr/mg of protein"
- COMPOUND: "CC(C)O"
  Conversion Rate: "5.0 μmoles/hr/mg of protein"

* * *

Form field: Conversion Rate (one value per entry).
Tested on: Torulopsis sp. Strain A1 (NRRLY-11,419)
Experiment: Oxidation of sec-alcohols to ketones by cell suspensions of yeasts
Type: cell-based
Conditions: growth substrate Methylamine; sec-alcohol to methyl ketone

- MOLECULE: "CCCCC(C)O (stereo not shown)"
  Conversion Rate: "0.12 μmoles/hr/mg of protein"
- MOLECULE: "CC(C)O"
  Conversion Rate: "4.3 μmoles/hr/mg of protein"
- MOLECULE: "CCC(C)O (stereo not shown)"
  Conversion Rate: "4.5 μmoles/hr/mg of protein"
- MOLECULE: "CCCC(C)O (stereo not shown)"
  Conversion Rate: "0.9 μmoles/hr/mg of protein"

* * *

System: Hansenula polymorpha ATCC 26012
Assay: Oxidation of sec-alcohols to ketones by cell suspensions of yeasts
Assay type: cell-based
Conditions: growth substrate Methylformate; sec-alcohol to methyl ketone
Form field: Conversion Rate (one value per entry).
VALUE KIND: Conversion Rate

- COMPOUND: "CC(C)O [Isopropanol]"
  SYSTEM NAME: "Hansenula polymorpha ATCC 26012"
  RESULT: "5.6 μmoles/hr/mg of protein"
- COMPOUND: "CCC(C)O (stereo not shown) [2-Butanol]"
  SYSTEM NAME: "Hansenula polymorpha ATCC 26012"
  RESULT: "5.2 μmoles/hr/mg of protein"
- COMPOUND: "CCCC(C)O (stereo not shown) [2-Pentanol]"
  SYSTEM NAME: "Hansenula polymorpha ATCC 26012"
  RESULT: "1.3 μmoles/hr/mg of protein"
- COMPOUND: "CCCCC(C)O (stereo not shown) [2-Hexanol]"
  SYSTEM NAME: "Hansenula polymorpha ATCC 26012"
  RESULT: "0.70 μmoles/hr/mg of protein"

* * *

Test system: Pichia sp. NRRL-Y-11328
Experiment: Oxidation of sec-alcohols to ketones by cell suspensions of yeasts
Assay type: cell-based
Details: growth substrate Propylamine; sec-alcohol to methyl ketone
VALUE KIND: Conversion Rate

- MOLECULE: "CCCCC(C)O (stereo not shown)"
  VALUE KIND: "Conversion Rate"
  RESULT: "0.21 μmoles/hr/mg of protein"
- MOLECULE: "CCC(C)O (stereo not shown)"
  VALUE KIND: "Conversion Rate"
  RESULT: "2.1 μmoles/hr/mg of protein"
- MOLECULE: "CC(C)O"
  VALUE KIND: "Conversion Rate"
  RESULT: "3.2 μmoles/hr/mg of protein"
- MOLECULE: "CCCC(C)O (stereo not shown)"
  VALUE KIND: "Conversion Rate"
  RESULT: "0.60 μmoles/hr/mg of protein"

FYI, the data here is from patent US4347319A.
